Assignment: determine reported residual activity for the given compounds.
# TESTED_TARGET: MAPK13 (human)
# METHOD_NOTES: radiometric filter-binding kinase assay, Kinase HotSpot
# STATED_CONDITIONS: compound 0.5 µM; ATP 10 µM
One number for each entry, in %.

[[record]]
molecule_smiles = "Cc1nc2cc3nc(-c4cccs4)cnc3cc2n1C"
endpoint_name = "residual activity"
readout_value = 99.7

[[record]]
molecule_smiles = "COc1ccc(OC)c2c(=S)c3ccccc3[nH]c12"
endpoint_name = "residual activity"
readout_value = 103

[[record]]
molecule_smiles = "Nc1nnc2[nH]c3ccccc3nc1-2"
endpoint_name = "residual activity"
readout_value = 101

[[record]]
molecule_smiles = "O=C(CCCc1ccc(-c2ccccc2F)cc1)Nc1ccc(O)cc1"
endpoint_name = "residual activity"
readout_value = 103

[[record]]
molecule_smiles = "Cn1cnc2cc3c(Nc4cccc(Br)c4)ncnc3cc21"
endpoint_name = "residual activity"
readout_value = 101


Record residual activity for all entries; do not skip any.
1. CN(C)C[C@H]1CCn2c(c(C3=C(c4cn(C)c5ccccc45)C(=O)NC3=O)c3ccccc32)C1
2. O=C(Nc1cccc(Nc2cc(Nc3cccc(C(F)(F)F)c3)ncn2)c1)C1CC1
3. CC(C)c1nn(-c2c(Cl)cccc2Cl)c2nc(Cc3ccc(OCCO)cc3)nc(O)c12
4. O=C1Nc2ccccc2/C1=C1\Nc2ccccc2\C1=N/O
5. Cn1sc(=O)n(Cc2ccccc2)c1=O
6. CC(C)[C@H](CO)Nc1nc(Nc2cc(N)cc(Cl)c2)c2ncn(C(C)C)c2n1

### Response
[117, 106, 104, 105, 97.5, 101]

====

# TESTED_TARGET: UniProtKB Q86Z02
# Sequence (Q86Z02 whole entry, looked up): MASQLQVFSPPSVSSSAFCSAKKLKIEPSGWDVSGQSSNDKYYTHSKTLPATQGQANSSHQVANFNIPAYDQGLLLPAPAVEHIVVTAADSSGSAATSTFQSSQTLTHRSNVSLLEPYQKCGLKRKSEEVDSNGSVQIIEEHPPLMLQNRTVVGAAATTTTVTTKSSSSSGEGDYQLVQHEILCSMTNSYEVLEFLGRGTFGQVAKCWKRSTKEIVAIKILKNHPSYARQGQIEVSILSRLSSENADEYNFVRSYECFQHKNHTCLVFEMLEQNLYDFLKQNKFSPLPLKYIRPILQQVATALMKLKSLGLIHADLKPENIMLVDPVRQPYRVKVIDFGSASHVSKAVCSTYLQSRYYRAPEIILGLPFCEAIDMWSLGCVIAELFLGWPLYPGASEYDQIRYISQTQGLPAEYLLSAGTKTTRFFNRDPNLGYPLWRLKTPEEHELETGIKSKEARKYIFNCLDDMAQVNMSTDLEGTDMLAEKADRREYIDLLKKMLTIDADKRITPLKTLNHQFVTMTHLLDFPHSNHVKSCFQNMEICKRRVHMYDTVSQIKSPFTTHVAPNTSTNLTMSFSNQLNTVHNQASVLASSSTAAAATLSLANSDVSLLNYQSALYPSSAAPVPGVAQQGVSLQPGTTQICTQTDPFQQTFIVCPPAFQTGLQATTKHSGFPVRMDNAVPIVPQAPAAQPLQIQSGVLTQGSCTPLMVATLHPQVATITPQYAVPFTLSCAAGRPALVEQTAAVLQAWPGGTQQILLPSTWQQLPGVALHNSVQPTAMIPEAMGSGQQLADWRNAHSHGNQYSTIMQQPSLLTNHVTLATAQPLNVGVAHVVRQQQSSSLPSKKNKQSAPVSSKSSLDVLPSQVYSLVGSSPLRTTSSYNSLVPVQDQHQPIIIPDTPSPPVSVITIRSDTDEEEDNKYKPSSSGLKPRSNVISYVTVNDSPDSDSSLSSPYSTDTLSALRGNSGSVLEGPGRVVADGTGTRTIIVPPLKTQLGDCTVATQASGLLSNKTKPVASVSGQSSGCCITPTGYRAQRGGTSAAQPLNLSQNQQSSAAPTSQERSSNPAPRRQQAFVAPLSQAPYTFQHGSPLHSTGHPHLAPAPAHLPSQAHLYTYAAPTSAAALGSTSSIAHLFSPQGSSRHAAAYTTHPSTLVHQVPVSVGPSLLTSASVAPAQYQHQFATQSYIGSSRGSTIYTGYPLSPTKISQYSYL
# METHOD_NOTES: radiometric filter-binding kinase assay, Kinase HotSpot
# STATED_CONDITIONS: compound 0.5 µM; ATP 10 µM
ENDPOINT_NAME: residual activity (%)
Numbers only, in %.

[[record]]
molecule = "Cn1cnc2cc3c(Nc4cccc(Br)c4)ncnc3cc21"
readout_value = 108

[[record]]
molecule = "CC(C)[C@H](CO)Nc1nc(Nc2cc(N)cc(Cl)c2)c2ncn(C(C)C)c2n1"
readout_value = 99.2

[[record]]
molecule = "O=C1NC(=O)C(c2cn(CCCO)c3ncccc23)=C1c1cnccn1"
readout_value = 84.2

[[record]]
molecule = "O=C(O)/C=C/c1cc(Br)c(Br)c(Br)c1Br"
readout_value = 99.6

[[record]]
molecule = "Oc1ccc(Nc2nc(-c3ccc(Cl)cc3)cs2)cc1"
readout_value = 100

[[record]]
molecule = "COc1ccc(CNC(=O)Nc2ncc([N+](=O)[O-])s2)cc1"
readout_value = 100


For every listed record, write down its residual activity.
1. Nc1nccc(-c2c(-c3ccc(F)cc3)ncn2C2CCNCC2)n1
2. O=C1Nc2ccccc2/C1=C1/Nc2ccccc2/C1=N\OCCC(O)CO (configuration not stated)
3. COc1cc2ncc(-c3ccccc3)nc2cc1OC
4. Cc1nc2cc3nc(-c4cccs4)cnc3cc2n1C

### Response
101
96
93.4
103

Hello, I would appreciate it if you could give residual activity for each entry below.
1. COc1cc2ncnc(N3CCN(C(=O)Nc4ccc(Oc5ccccc5)cc4)CC3)c2cc1OC
2. CCN(CC)CCCCN1c2ccccc2Oc2ccc(Cl)cc21
3. COc1ccc(OC)c2c(=S)c3ccccc3[nH]c12
4. Cn1sc(=O)n(Cc2ccccc2)c1=O
5. O=C1Nc2ccccc2/C1=C1\Nc2ccccc2\C1=N/O

### Response
96.9
106
107
92.3
98.9

Can you give me residual activity for all of these, one by one?
1. CC(C)c1nn(-c2c(Cl)cccc2Cl)c2nc(Cc3ccc(OCCO)cc3)nc(O)c12
2. CC(=O)O/N=C1\C(=C2\C(=O)Nc3cc(Br)ccc32)Nc2ccccc21
3. CN(C)C[C@H]1CCn2c(c(C3=C(c4cn(C)c5ccccc45)C(=O)NC3=O)c3ccccc32)C1
4. CN([C@@H](Cc1ccc(OS(=O)(=O)c2cccc3cnccc23)cc1)C(=O)N1CCN(c2ccccc2)CC1)S(=O)(=O)c1cccc2cnccc12
5. CCn1cnc2c(Nc3cccc(Cl)c3)nc(N[C@@H]3CCCC[C@@H]3N)nc21
6. O=C1NC(=O)C(c2c[nH]c3ccccc23)=C1c1c[nH]c2ccccc12

### Response
1: 102; 2: 83; 3: 101; 4: 110; 5: 97.5; 6: 102

### Prompt What measured residual activity goes with `O=C(CCCc1ccc(-c2ccccc2F)cc1)Nc1ccc(O)cc1` ?
### Response 105

====

# TESTED_TARGET: FLT3 (human)
# METHOD_NOTES: radiometric filter-binding kinase assay, Kinase HotSpot
# STATED_CONDITIONS: compound 0.5 µM; ATP 10 µM
Class field: derived from residual activity; ranges LOW: < 50%; MEDIUM: ≥ 50% and < 90%; HIGH: ≥ 90%

[[record]]
molecule_smiles = "COc1cc2ncc(-c3ccccc3)nc2cc1OC"
assigned_class = "MEDIUM"

[[record]]
molecule_smiles = "Cn1nc2c3c(cccc31)C(=O)c1ccccc1-2"
assigned_class = "MEDIUM"

[[record]]
molecule_smiles = "O=C1Cc2c([nH]c3ccc(Br)cc23)-c2ccccc2N1"
assigned_class = "LOW"

[[record]]
molecule_smiles = "CCn1cnc2c(Nc3cccc(Cl)c3)nc(N[C@@H]3CCCC[C@@H]3N)nc21"
assigned_class = "LOW"

[[record]]
molecule_smiles = "CC(C)[C@H](CO)Nc1nc(Nc2cc(N)cc(Cl)c2)c2ncn(C(C)C)c2n1"
assigned_class = "LOW"

[[record]]
molecule_smiles = "CCN(CC)CCCCN1c2ccccc2Oc2ccc(Cl)cc21"
assigned_class = "HIGH"

[[record]]
molecule_smiles = "O=C1Nc2ccccc2/C1=C1\\Nc2ccccc2\\C1=N/O"
assigned_class = "LOW"

[[record]]
molecule_smiles = "O=C(CCCc1ccc(-c2ccccc2F)cc1)Nc1ccc(O)cc1"
assigned_class = "HIGH"


Continue with the next compound.
### Prompt Quick check: band for `O=C(O)/C=C/c1cc(Br)c(Br)c(Br)c1Br`
### Response MEDIUM

====

# TESTED_TARGET: UniProt P48730
# Sequence (P48730 whole entry, looked up): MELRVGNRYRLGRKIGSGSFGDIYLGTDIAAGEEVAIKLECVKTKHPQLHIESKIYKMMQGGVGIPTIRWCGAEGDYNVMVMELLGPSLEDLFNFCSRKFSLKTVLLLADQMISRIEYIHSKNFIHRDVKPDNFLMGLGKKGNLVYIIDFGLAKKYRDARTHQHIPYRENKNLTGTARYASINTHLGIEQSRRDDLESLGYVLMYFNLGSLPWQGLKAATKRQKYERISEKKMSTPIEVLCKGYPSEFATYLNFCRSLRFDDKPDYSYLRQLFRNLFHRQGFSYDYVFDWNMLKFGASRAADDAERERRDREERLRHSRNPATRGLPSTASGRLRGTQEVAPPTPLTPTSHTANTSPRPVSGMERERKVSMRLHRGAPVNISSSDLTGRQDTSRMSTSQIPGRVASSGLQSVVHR
# METHOD_NOTES: radiometric filter-binding kinase assay, Kinase HotSpot
# STATED_CONDITIONS: compound 0.5 µM; ATP 10 µM
For each of the compounds below, state its residual activity.
Answers are plain numbers, in %.

[[record]]
molecule_smiles = "Cn1sc(=O)n(Cc2ccccc2)c1=O"
tested_target = "UniProt P48730"
measure_unit = "%"
readout_value = 100


Batch lookup, residual activity per entry.
1. O=C1Cc2c([nH]c3ccc(Br)cc23)-c2ccccc2N1
2. Oc1ccc(Nc2nc(-c3ccc(Cl)cc3)cs2)cc1
3. CC(=O)O/N=C1\C(=C2\C(=O)Nc3cc(Br)ccc32)Nc2ccccc21
4. Nc1nccc(-c2c(-c3ccc(F)cc3)ncn2C2CCNCC2)n1

### Response
[104, 105, 92.3, 1.25]

Please report residual activity for every entry that follows.
1. O=C1NC(=O)/C(=C\c2ccc3nccnc3c2)S1
2. CN(C)C[C@H]1CCn2c(c(C3=C(c4cn(C)c5ccccc45)C(=O)NC3=O)c3ccccc32)C1
3. COc1ccc(OC)c2c(=S)c3ccccc3[nH]c12
4. CCn1cnc2c(Nc3cccc(Cl)c3)nc(N[C@@H]3CCCC[C@@H]3N)nc21
5. O=C1NC(=O)C(c2cn(CCCO)c3ncccc23)=C1c1cnccn1
6. Cc1nc2cc3nc(-c4cccs4)cnc3cc2n1C
7. Nc1nnc2[nH]c3ccccc3nc1-2

### Response
1. 96.3
2. 101
3. 101
4. 97.8
5. 99.4
6. 95.9
7. 94.2

====

# TESTED_TARGET: CAMK2D (human) (UniProt Q13557)
# Sequence (Q13557 whole entry, looked up): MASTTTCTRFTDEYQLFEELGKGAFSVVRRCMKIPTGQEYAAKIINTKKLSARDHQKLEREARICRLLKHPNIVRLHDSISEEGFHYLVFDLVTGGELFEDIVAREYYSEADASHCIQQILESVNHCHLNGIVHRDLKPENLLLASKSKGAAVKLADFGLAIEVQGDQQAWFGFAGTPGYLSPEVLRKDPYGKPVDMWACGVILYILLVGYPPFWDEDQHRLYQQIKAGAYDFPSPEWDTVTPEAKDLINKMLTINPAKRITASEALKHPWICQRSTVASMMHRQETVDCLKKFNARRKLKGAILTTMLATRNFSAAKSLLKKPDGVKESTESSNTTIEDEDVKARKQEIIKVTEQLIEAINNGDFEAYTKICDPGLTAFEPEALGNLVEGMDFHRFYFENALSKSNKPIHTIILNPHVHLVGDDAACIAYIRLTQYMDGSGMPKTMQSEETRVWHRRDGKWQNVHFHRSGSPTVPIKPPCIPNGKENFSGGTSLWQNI
# METHOD_NOTES: radiometric filter-binding kinase assay, Kinase HotSpot
# STATED_CONDITIONS: compound 0.5 µM; ATP 10 µM
ENDPOINT_NAME: residual activity (%)
One number for each entry, in %.

[[record]]
molecule_smiles = "O=C(CCCc1ccc(-c2ccccc2F)cc1)Nc1ccc(O)cc1"
readout_value = 108

[[record]]
molecule_smiles = "COc1cc2ncc(-c3ccccc3)nc2cc1OC"
readout_value = 87.5


Below are 2 molecules. Give each one its residual activity.
1. Cn1cnc2cc3c(Nc4cccc(Br)c4)ncnc3cc21
2. Oc1ccc(Nc2nc(-c3ccc(Cl)cc3)cs2)cc1

### Response
1. 92.2
2. 98.8

Hello, I would appreciate it if you could give residual activity for each entry below.
1. O=C1NC(=O)/C(=C\c2ccc3nccnc3c2)S1
2. CN([C@@H](Cc1ccc(OS(=O)(=O)c2cccc3cnccc23)cc1)C(=O)N1CCN(c2ccccc2)CC1)S(=O)(=O)c1cccc2cnccc12

### Response
1. 93.7
2. 92.8

Hello, I would appreciate it if you could give residual activity for each entry below.
1. Cn1sc(=O)n(Cc2ccccc2)c1=O
2. Nc1nccc(-c2c(-c3ccc(F)cc3)ncn2C2CCNCC2)n1
3. COc1ccc(OC)c2c(=S)c3ccccc3[nH]c12
4. CC(=O)O/N=C1\C(=C2\C(=O)Nc3cc(Br)ccc32)Nc2ccccc21

### Response
98.9
100
89.8
53.8

### Prompt Please provide the recorded residual activity for `O=C(O)/C=C/c1cc(Br)c(Br)c(Br)c1Br` , tested on CAMK2D (human) (UniProt Q13557).
### Response 77.7
